System: SUP-M2 cells
Method Summary: SUP-M2 cell viability (MTS)
Assay type: cell-based
Condition Context: Homo sapiens; SUP-M2, 72 hours
Metric: pIC50
API: returns pIC50 as number; meaning -log10 of concentration in mol/L.

Input: So what does the record say about pIC50 for C=C1CCCCCCCCCC(CO)C1=O (stereo not shown) ?
Output: 5.30

###

Study Target: immunopurified JAK3 (Homo sapiens, UniProt P52333)
Construct: immunopurified JAK3 from YT cells resuspended in kinase buffer; endogenous in cells; host or cells: YT cells (immunoprecipitate)
Sequence (P52333 whole entry): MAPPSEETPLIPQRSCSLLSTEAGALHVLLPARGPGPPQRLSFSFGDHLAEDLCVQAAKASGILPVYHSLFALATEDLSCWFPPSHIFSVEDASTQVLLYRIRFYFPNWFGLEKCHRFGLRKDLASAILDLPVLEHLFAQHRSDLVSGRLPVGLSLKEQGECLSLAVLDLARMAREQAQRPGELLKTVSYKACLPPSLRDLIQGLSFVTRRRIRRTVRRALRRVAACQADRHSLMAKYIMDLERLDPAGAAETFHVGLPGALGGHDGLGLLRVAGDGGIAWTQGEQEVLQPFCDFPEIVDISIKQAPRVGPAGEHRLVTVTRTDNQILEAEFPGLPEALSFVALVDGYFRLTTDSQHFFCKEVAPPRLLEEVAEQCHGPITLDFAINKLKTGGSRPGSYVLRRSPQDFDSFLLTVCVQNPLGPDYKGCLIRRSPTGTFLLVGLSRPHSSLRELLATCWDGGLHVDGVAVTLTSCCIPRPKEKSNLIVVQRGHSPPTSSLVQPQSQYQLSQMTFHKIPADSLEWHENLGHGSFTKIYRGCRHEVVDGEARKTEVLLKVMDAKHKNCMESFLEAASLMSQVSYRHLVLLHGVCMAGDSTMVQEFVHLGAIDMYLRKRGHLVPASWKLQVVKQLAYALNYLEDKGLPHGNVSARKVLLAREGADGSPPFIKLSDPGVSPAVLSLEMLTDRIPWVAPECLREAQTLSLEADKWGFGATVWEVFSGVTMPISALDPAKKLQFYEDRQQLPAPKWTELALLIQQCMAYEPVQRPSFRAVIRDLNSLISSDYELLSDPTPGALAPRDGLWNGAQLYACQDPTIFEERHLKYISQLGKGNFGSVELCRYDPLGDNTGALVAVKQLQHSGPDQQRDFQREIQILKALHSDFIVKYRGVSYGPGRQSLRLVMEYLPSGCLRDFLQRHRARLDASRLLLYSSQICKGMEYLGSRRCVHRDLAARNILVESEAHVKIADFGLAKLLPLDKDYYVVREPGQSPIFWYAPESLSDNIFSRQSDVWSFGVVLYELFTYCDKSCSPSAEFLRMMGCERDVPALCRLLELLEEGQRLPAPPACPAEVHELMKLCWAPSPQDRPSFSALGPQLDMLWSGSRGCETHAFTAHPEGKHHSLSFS
Method Summary: In vitro JAK3 autokinase assay
Type: biochemical
Condition Context: 1 μM ATP, densitometry analysis
Metric: IC50

Input: For immunopurified JAK3 (Homo sapiens, UniProt P52333), provide IC50 of C=C1CCCCCCCCCC(CO)C1=O (stereo not shown) please.
Output: 1000 to 2500 nM

Values from patent US9371265B2
